Test system: MILI (PIWIL2) piRISC loaded with piRNA #1 (26 nt);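 note: 1 nM active piRISC with 0.1 nM target library at 33 °C single turnover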
procedure_text: pre-steady-state target cleavage rate (min^-1); guide: piRNA #1 5'p-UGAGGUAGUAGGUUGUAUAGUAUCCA; MIWI and MILI are mouse PIWI proteins and EfPiwi is from a freshwater sponge; tags in brackets are library labels; higher = faster piRNA-guided slicing of the target
protocol_conditions: auxiliary factor: 500 nM mouse GTSF1
observed_property: pre-steady-state target cleavage rate
Give bare numbers.

record_sequence: GGAGUGGAUACAAUACAAGCUACUACCUCA
pre-steady-state target cleavage rate: 0.213
--
record_sequence: GGAGACCUAUGAUUACAACCUACUACCUUCA
pre-steady-state target cleavage rate: 0.00664
--
record_sequence: GGAGACCAUACUUUUCAACCUACUACCUCA
pre-steady-state target cleavage rate: 0.153
--
record_sequence: GGAGACCAUACUAAACAACCUACUAGCUCA
pre-steady-state target cleavage rate: 0.165

Provide pre-steady-state target cleavage rate for all items below, preserving their order.
1. GGAGUGGAUACUUUACAAGCUACUACCUCA
2. GGAGUGGAUUCUAUACAACCAACUACCUCA

0.192
0.00438

Provide pre-steady-state target cleavage rate for all items below, preserving their order.
1. GGAGACCUAUGUAUCACAACCUACUACCUCA
2. GGAGACGUUACUAUACAACCUACUACGUCA

1. 0.0102
2. 0.0772
